tested on: PC-3; test: NCI tumour cell line growth inhibition, 48 h
Where a name gives a salt, the structure may show the parent alone. The source made the active and inactive calls. Cut-off read from the data, not from the text of the source: active = GI50 up to about 1.1 µM and inactive = higher.
Listing of recorded GI50 by entry.

{"compound": "C#Cc1cccc(Nc2ncnc3cc(OCCOC)c(OCCOC)cc23)c1 [ERLOTINIB HYDROCHLORIDE]", "GI50": "34.5 µM (inactive)"}
{"compound": "C1CNOCCCONCCCNOCCCONC1", "GI50": "27.6 µM (inactive)"}
{"compound": "COc1ccc(S(=O)(=O)N2C(=O)CCC2C(=O)NC(N)=O)cc1 (centres undefined)", "GI50": "> 100 µM (inactive)"}
{"compound": "C=C[C@H]1CN2CC[C@H]1C[C@@H]2[C@@H](O)c1ccnc2ccccc12", "GI50": "> 100 µM (inactive)"}

* * *

test system: T47D; assay: NCI tumour cell line growth inhibition, 48 h
Active and inactive are the calls of the source. No stated cut-off is given here; in the data, active = GI50 up to about 1.1 µM and inactive = higher.
Possible outcomes: active, inactive

{"molecule": "C[C@H]1C(=O)O[C@@H]2CCN3CC=C(COC(=O)[C@](C)(O)[C@@]1(C)O)[C@H]23", "qualitative_label": "inactive"}
{"molecule": "CCCCCC(/C=C/[C@@H]1[C@@H](C(O)CCCCCC(=O)OC)C(=O)C[C@H]1O[Si](C)(C)C(C)(C)C)OCOCCOC (some centres undefined)", "qualitative_label": "inactive"}
{"molecule": "CCN1CCCn2c(=O)[nH]c3cc(Br)cc1c32", "qualitative_label": "inactive"}
{"molecule": "O=C(NCCSSCCNC(=O)/C(Cc1ccc(O)c(Br)c1)=N/O)/C(Cc1ccc(O)c(Br)c1)=N/O", "qualitative_label": "inactive"}
{"molecule": "COc1ccc(-c2cc(O)c3c(C)cc(C)nc3n2)cc1", "qualitative_label": "inactive"}
{"molecule": "Cc1ccccc1C1=C/C(=C(\\SS/C(C(=O)c2ccc(OCC(=O)O)c(Cl)c2Cl)=C2\\C=C(c3ccccc3C)SS2)C(=O)c2ccc(OCC(=O)O)c(Cl)c2Cl)SS1", "qualitative_label": "inactive"}
{"molecule": "CCOC(=O)C1(N)CC1", "qualitative_label": "inactive"}
{"molecule": "COc1cc2c3c(c4ccc(O)cc4c2cc1OC)[C@@H](O)[C@@H]1CCCN1C3", "qualitative_label": "active"}
{"molecule": "CC(=O)n1nc(-c2[nH]c(C)c(-c3nn(C(C)=O)c(=S)o3)c2C)oc1=S", "qualitative_label": "inactive"}
{"molecule": "CN(C)c1ccc(/C=C(\\NC(=O)c2ccccc2)C(=O)NC(CC(=O)O)C(=O)O)cc1 (centres undefined)", "qualitative_label": "inactive"}
{"molecule": "COCn1cc(C2=C(C)C(=O)C(C)=C(C)C2=O)cn1", "qualitative_label": "inactive"}
{"molecule": "C/C1=C\\[C@@H](C)C[C@@H](C)OC(=O)[C@@H](C)NC(=O)[C@H](Cc2ccc(O)c(Br)c2)N(C)C(=O)CNC(=O)[C@H](C)C1", "qualitative_label": "active"}
{"molecule": "Cc1cc(S(N)(=O)=O)c(S/C(=N\\Nc2ccc([N+](=O)[O-])cc2)c2ccc(Cl)cc2)cc1Cl", "qualitative_label": "inactive"}
{"molecule": "COc1ccc2[nH]c3nnc(N)c-3nc2c1", "qualitative_label": "inactive"}
{"molecule": "CCN(CC)S(=O)(=O)c1ccc2[nH]c(NC(=O)OC)nc2c1", "qualitative_label": "inactive"}
{"molecule": "Cc1cc(C)nc(SCC(=O)OC2CC(C)CCC2C(C)C)n1 (centres undefined)", "qualitative_label": "inactive"}
{"molecule": "O=S1(=O)C(c2ccccc2)C(N2CCCCC2)C1C1CC2c3ccccc3C1c1ccccc12 (centres undefined)", "qualitative_label": "inactive"}
{"molecule": "CN(C)c1cccc2c(S(=O)(=O)NCCCNCCN)cccc12", "qualitative_label": "inactive"}
{"molecule": "CSc1nnc(SCc2nn3c(=O)cc(C)nc3s2)s1", "qualitative_label": "inactive"}
{"molecule": "S=C(N/N=C\\C(=N/NC(=S)N1CCCCC1)c1ccccc1)N1CCCCC1", "qualitative_label": "inactive"}
{"molecule": "N#CCc1nc(C#N)c(N)o1", "qualitative_label": "inactive"}
{"molecule": "Cc1ccc(C2(O)CS/C(=N\\C34CC5CC(CC(C5)C3)C4)N2C(P(=O)(O)O)P(=O)(O)O)cc1 (centres undefined)", "qualitative_label": "inactive"}
{"molecule": "CC(C)c1ccc(O)c(=O)c(O)c1.CC(C)c1ccc(O)c(=O)cc1.CC(C)c1cccc(=O)c(O)c1.CC(C)c1ccccc(=O)c1O", "qualitative_label": "inactive"}
{"molecule": "COc1ccc(C(CC(=O)c2cccs2)C(=O)c2ccc3c(c2)OCO3)cc1 (centres undefined)", "qualitative_label": "inactive"}
{"molecule": "Cc1cn(CCCCCOC(=O)NC(CCCNC(N)=O)C(=O)O)c(=O)[nH]c1=O (centres undefined)", "qualitative_label": "inactive"}
{"molecule": "N#CC1=C(N2CCOCC2)CCC1", "qualitative_label": "inactive"}
{"molecule": "NCC#CCNCCCN1CC1", "qualitative_label": "inactive"}
{"molecule": "OC1OC(c2ccc[nH]2)C(F)(F)C(F)(F)C1(F)F (centres undefined)", "qualitative_label": "inactive"}
{"molecule": "O=C1Nc2ccccc2/C1=C\\c1c(Cl)nc2n1CCS2", "qualitative_label": "inactive"}

* * *

test system: NCI-H226; assay: NCI tumour cell line growth inhibition, 48 h
Active and inactive are the calls of the source. Cut-off read from the data, not from the text of the source: active = GI50 up to about 1.1 µM and inactive = higher.
Possible outcomes: active, inactive

{"compound": "COc1cc2c3c(c4ccc(O)cc4c2cc1OC)[C@@H](O)[C@@H]1CCCN1C3", "tested_target": "NCI-H226", "qualitative_label": "active"}
{"compound": "CN(C)CCSCCO", "tested_target": "NCI-H226", "qualitative_label": "inactive"}
{"compound": "CC(=O)OC1CC2C(C)(C)OC(=O)CC(OC(C)=O)[C@]2(C)C2CCC3(C)C(=CCC3c3ccoc3)[C@]12C (some centres undefined)", "tested_target": "NCI-H226", "qualitative_label": "inactive"}
{"compound": "O=C1CCCC1C(=O)Nc1ccc2ccccc2c1 (centres undefined)", "tested_target": "NCI-H226", "qualitative_label": "inactive"}

* * *

system: SW-620; experiment: NCI tumour cell line growth inhibition, 48 h
Activity calls are given as the source filed them. No stated cut-off is given here; in the data, active = GI50 up to about 1.1 µM and inactive = higher.
measured_endpoint: GI50

{"molecule": "CCOC(=O)Cc1nc2ccc3c(c2nc1O)C(=O)c1ccccc1C3=O", "tested_target": "SW-620", "measured_endpoint": "GI50", "data_value": "56 µM (inactive)"}
{"molecule": "CCOC(=O)CCC(NC(=O)c1ccc(Nc2nc3cc(C(F)(F)F)ccc3nc2C(=O)OCC)cc1)C(=O)OCC (stereo unspecified)", "tested_target": "SW-620", "measured_endpoint": "GI50", "data_value": "18.6 µM (inactive)"}
{"molecule": "Cc1cc2c(cc1-c1cc3c(cc1C)C(C(C)C)=C(O)C(=O)/C3=C\\Nc1cccc3c(N)cccc13)/C(=C/Nc1cccc3c(N)cccc13)C(=O)C(O)=C2C(C)C", "tested_target": "SW-620", "measured_endpoint": "GI50", "data_value": "> 100 µM (inactive)"}
{"molecule": "COC(=O)/C=C(\\C)CC/C=C(\\C)CCC(O)C(C)(C)O (stereo unspecified)", "tested_target": "SW-620", "measured_endpoint": "GI50", "data_value": "22.7 µM (inactive)"}
{"molecule": "Cc1cc(N(CCC#N)CCC#N)ccc1C(=N/NC(=O)c1cc(Cl)ccc1O)/N=N/c1cccc(Cl)c1", "tested_target": "SW-620", "measured_endpoint": "GI50", "data_value": "17.8 µM (inactive)"}
{"molecule": "CCOC(=O)/C=C/CCC(C)(C)COC(C)=O", "tested_target": "SW-620", "measured_endpoint": "GI50", "data_value": "> 10 µM (inactive)"}
{"molecule": "O=C(O)CSC(CC(=O)c1ccc(Cl)cc1)c1ccc(Cl)cc1 (stereo unspecified)", "tested_target": "SW-620", "measured_endpoint": "GI50", "data_value": "4.17 µM (inactive)"}
{"molecule": "Cc1cc(O)c(C(C)C)cc1CN1CCCCC1", "tested_target": "SW-620", "measured_endpoint": "GI50", "data_value": "> 100 µM (inactive)"}
{"molecule": "Cc1ccc(C2(O)CS/C(=N\\C34CC5CC(CC(C5)C3)C4)N2C(P(=O)(O)O)P(=O)(O)O)cc1 (stereo unspecified)", "tested_target": "SW-620", "measured_endpoint": "GI50", "data_value": "> 100 µM (inactive)"}
{"molecule": "O=C(O)CS(=O)(=O)C(c1ccccc1)c1ccccc1", "tested_target": "SW-620", "measured_endpoint": "GI50", "data_value": "> 100 µM (inactive)"}
{"molecule": "CC[N+]1(C)CCC(O)(/C=C/c2ccccc2)C(C(=O)/C=C/c2ccccc2)C1 (stereo unspecified)", "tested_target": "SW-620", "measured_endpoint": "GI50", "data_value": "2.45 µM (inactive)"}
